Type: in vivo, human
condition-parameters: human, plasma, oral, 150 mg, AUC0–τ, Day 14; 150 mg once daily; moderate hepatic impairment; geometric mean (SD)
reported-metric: AUC (ng·h/mL)
Give just the number in ng·h/mL; leave the unit off.

Reported AUC ( CCCCOCCOc1ccc(-c2ccc3c(c2)/C=C(/C(=O)Nc2ccc([S@@+]([O-])Cc4cncn4CCC)cc2)CCCN3CC(C)C)cc1 ) = 9180

---

Type: in vivo, human
condition-parameters: human, plasma, oral, 150 mg, Vz/F, Day 1; 150 mg; matched controls (moderate); geometric mean (SD)
reported-metric: Vd/F (L)
State the answer as a number, implicitly in L.

Please fill in: Vd/F reported for CCCCOCCOc1ccc(-c2ccc3c(c2)/C=C(/C(=O)Nc2ccc([S@@+]([O-])Cc4cncn4CCC)cc2)CCCN3CC(C)C)cc1 = 370

---

Assay type: in vivo, human
condition-parameters: human, plasma, oral, 150 mg, AUC0–τ, Day 14; 150 mg once daily; matched controls (mild); geometric mean (SD)
reported-metric: AUC (ng·h/mL)
Express your answer in ng·h/mL, writing the number without its unit.

Consider CCCCOCCOc1ccc(-c2ccc3c(c2)/C=C(/C(=O)Nc2ccc([S@@+]([O-])Cc4cncn4CCC)cc2)CCCN3CC(C)C)cc1 . Its measured AUC is 10400

---

Format: in vivo, human
condition-parameters: human, plasma, oral, 150 mg, Cmax, Day 14; 150 mg once daily; matched controls (moderate); geometric mean (SD)
reported-metric: Cmax (ng/mL)
Express the result in ng/mL but write the number alone.

In plain terms, CCCCOCCOc1ccc(-c2ccc3c(c2)/C=C(/C(=O)Nc2ccc([S@@+]([O-])Cc4cncn4CCC)cc2)CCCN3CC(C)C)cc1 [cenicriviroc] has a documented Cmax of 469

---

Format: in vivo, human
condition-parameters: human, plasma, oral, 150 mg, AUC0–τ, Day 14; 150 mg once daily; mild hepatic impairment; geometric mean (SD)
reported-metric: AUC (ng·h/mL)
# unit: ng·h/mL | format: bare number

CCCCOCCOc1ccc(-c2ccc3c(c2)/C=C(/C(=O)Nc2ccc([S@@+]([O-])Cc4cncn4CCC)cc2)CCCN3CC(C)C)cc1 has a reported AUC of 6470

---

Type: in vivo, human
condition-parameters: human, plasma, oral, 150 mg, AUC0–∞, Day 14; 150 mg once daily; matched controls (moderate); geometric mean (SD)
reported-metric: AUC(0-inf) (µg·h/mL)
Numbers only here, please. The scale is µg·h/mL.

Lab book: AUC(0-inf) of CCCCOCCOc1ccc(-c2ccc3c(c2)/C=C(/C(=O)Nc2ccc([S@@+]([O-])Cc4cncn4CCC)cc2)CCCN3CC(C)C)cc1 [cenicriviroc] noted as 11

---

Type: in vivo, human
condition-parameters: human, plasma, oral, 150 mg, Cmin, Day 14; 150 mg once daily; moderate hepatic impairment; geometric mean (SD)
reported-metric: concentration at 14 day (ng/mL)
Your answer should be a plain number; it is taken to be in ng/mL.

Reported concentration at 14 day of CCCCOCCOc1ccc(-c2ccc3c(c2)/C=C(/C(=O)Nc2ccc([S@@+]([O-])Cc4cncn4CCC)cc2)CCCN3CC(C)C)cc1 : 275

---

Assay type: in vivo, human
condition-parameters: human, plasma, oral, 150 mg, Tmax, Day 14; 150 mg once daily; moderate hepatic impairment; geometric mean (SD)
reported-metric: Tmax
Please answer using the number first and the unit second.

Record CCCCOCCOc1ccc(-c2ccc3c(c2)/C=C(/C(=O)Nc2ccc([S@@+]([O-])Cc4cncn4CCC)cc2)CCCN3CC(C)C)cc1 [cenicriviroc] , field Tmax: 4.83 h
